# STUDY SYSTEM: Human BACE-2 (Homo sapiens (Human), UniProt Q9Y5Z0)
# Sequence (Q9Y5Z0 63-473): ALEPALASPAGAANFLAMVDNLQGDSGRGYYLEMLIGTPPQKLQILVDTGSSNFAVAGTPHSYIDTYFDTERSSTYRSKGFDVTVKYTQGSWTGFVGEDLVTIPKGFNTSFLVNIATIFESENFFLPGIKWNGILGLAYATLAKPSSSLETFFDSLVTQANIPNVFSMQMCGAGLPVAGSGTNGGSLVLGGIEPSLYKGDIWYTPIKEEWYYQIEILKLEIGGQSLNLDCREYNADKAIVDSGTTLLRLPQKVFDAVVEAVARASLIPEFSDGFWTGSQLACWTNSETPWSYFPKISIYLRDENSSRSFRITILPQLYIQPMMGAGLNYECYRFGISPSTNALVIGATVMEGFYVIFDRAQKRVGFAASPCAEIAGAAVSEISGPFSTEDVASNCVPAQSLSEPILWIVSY
# METHOD NOTES: Test 2: Inhibition of Human BACE-2
# STUDY CONDITIONS: mean IC50, recombinant BACE-2, pH 4.5
READOUT NAME: pIC50
Quick note: pIC50 means taking -log10 of the concentration in moles per liter.

Identify pIC50 associated with the compound NC1=NC(CF)(c2cccc(NC(=O)c3ccc(Br)cn3)n2)COC1 (centres unmarked) [Example 4] 5.77

Identify measured pIC50 corresponding to Cc1cc(C#N)cnc1C(=O)Nc1cccc(C2(CF)COCC(N)=N2)n1 (centres unmarked) [Example 5] 6.00

Ref: patent US10035794B2
